assayedTarget: T1, ProQ (minimal ProQ, FinO domain with short N- and C-terminal extensions) (Neisseria meningitidis, UniProt Q9JY98 1-141)
T1 sequence: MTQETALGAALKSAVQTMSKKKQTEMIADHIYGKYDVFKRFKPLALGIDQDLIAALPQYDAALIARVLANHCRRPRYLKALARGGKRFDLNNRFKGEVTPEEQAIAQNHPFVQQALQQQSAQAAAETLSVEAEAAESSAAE
assayName: EMSA; max bound 90%; 25 mM Tris pH 7.5, 150 mM NaCl, 5% glycerol, 1 mM MgCl2, 1 nM 32P-RNA, ProQ up to 50 nM, 30 min at room temperature; 6% native gel at 4 C
testContext: protein: recombinant; tags: N-terminal His6-TEV, cleaved; one extra N-terminal Ser remains; label: 5'-32P; terminator hairpin, 5-U tail
measuredProperty: pKd
Please note pKd is a logarithmic value: minus log10 of concentration in mol/L. Answer with that number alone.

Form field: reported pKd of GGUUUCCUCUUGAUGUGUGUGUUUGGGUGUGGCUGCCGCCACCCCUUUUU (structured_RNA) [AniS-U5]
8.19
